- system_tested: Recombinant human JAK3 enzyme (JAK3 kinase region; Ala795-Ser1124) (Homo sapiens, UniProt P52333)
- Sequence (P52333 795-1124): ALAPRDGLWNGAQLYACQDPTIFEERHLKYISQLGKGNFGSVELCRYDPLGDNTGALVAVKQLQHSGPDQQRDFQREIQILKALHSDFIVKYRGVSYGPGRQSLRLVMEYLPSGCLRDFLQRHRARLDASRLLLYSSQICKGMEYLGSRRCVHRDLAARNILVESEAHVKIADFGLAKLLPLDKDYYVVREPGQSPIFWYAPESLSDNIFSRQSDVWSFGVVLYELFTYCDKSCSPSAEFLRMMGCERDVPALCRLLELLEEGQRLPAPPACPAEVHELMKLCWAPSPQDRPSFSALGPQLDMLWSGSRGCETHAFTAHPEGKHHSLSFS
- measurement_protocol: JAK3 Kinase Assay (Kinase-Glo luminescent, ATP consumption)
- assay_context: read-out: Inhibition rate (%) of JAK3 kinase activity
The threshold is inclusive: inhibition at 0.1 µM of exactly 70% counts as TRUE; values below receive FALSE.

Would you please look over these solved cases?
stdin: Is reported inhibition at 0.1 µM greater than or equal to 70% here: Cc1cc(Nc2cc(NCc3cc(F)cc(F)c3)c(C(N)=O)cn2)ccc1N1CCOCC1
stdout: FALSE

stdin: Is reported inhibition at 0.1 µM greater than or equal to 70% here: C[C@@H]1CN(c2ccc(Nc3cc(NCc4cc(F)ccc4F)c(C(N)=O)cn3)cc2)C[C@H](C)N1
stdout: FALSE

Further cases:
stdin: Is reported inhibition at 0.1 µM greater than or equal to 70% here: CC(C)S(=O)(=O)Nc1cccc(Nc2cc(NCc3cc(F)cc(F)c3)c(C(N)=O)cn2)c1
stdout: FALSE

stdin: Is reported inhibition at 0.1 µM greater than or equal to 70% here: C[C@@H]1CN(c2ccc(Nc3cc(NCc4c(F)cccc4F)c(C(N)=O)cn3)cc2)C[C@H](C)N1
stdout: TRUE

stdin: Is reported inhibition at 0.1 µM greater than or equal to 70% here: CS(=O)(=O)NCCN1CCN(c2ccc(Nc3cc(NCc4cc(F)cc(F)c4)c(C(N)=O)cn3)cc2)CC1
stdout: TRUE

stdin: Is reported inhibition at 0.1 µM greater than or equal to 70% here: N#CCC(=O)N1CCN(c2ccc(Nc3cc(NCc4cccc(F)c4F)c(C(N)=O)cn3)cc2)CC1
stdout: TRUE

---

- system_tested: Recombinant human JAK3 enzyme (JAK3 kinase region; Ala795-Ser1124) (Homo sapiens, UniProt P52333)
- measurement_protocol: JAK3 Kinase Assay (Kinase-Glo luminescent, ATP consumption)
- assay_context: read-out: Inhibition rate (%) of JAK3 kinase activity
The threshold is inclusive: inhibition at 0.1 µM of exactly 80% counts as class 1; values below receive class 0.

stdin: Is reported inhibition at 0.1 µM greater than or equal to 80% here: CCN(CC)CC(=O)N1CCN(c2ccc(Nc3cc(NCc4cccc(F)c4F)c(C(N)=O)cn3)cc2)CC1
stdout: class 1

stdin: Is reported inhibition at 0.1 µM greater than or equal to 80% here: NC(=O)c1cnc(Nc2ccc(N3CCOCC3)cc2)cc1NCc1ccccc1
stdout: class 0

stdin: Is reported inhibition at 0.1 µM greater than or equal to 80% here: NCCCc1ccc(Nc2cc(NCc3cc(F)cc(F)c3)c(C(N)=O)cn2)cc1
stdout: class 0

Further cases:
stdin: Is reported inhibition at 0.1 µM greater than or equal to 80% here: NC(=O)c1cnc(Nc2ccc(N3CCCS3(=O)=O)cc2)cc1NCc1ccccc1
stdout: class 0

stdin: Is reported inhibition at 0.1 µM greater than or equal to 80% here: NC(=O)c1cnc(Nc2ccc(N3CCCN(CCO)CC3)cc2)cc1NCc1ccccc1
stdout: class 0

---

- system_tested: Recombinant human JAK3 enzyme (JAK3 kinase region; Ala795-Ser1124) (Homo sapiens, UniProt P52333)
- measurement_protocol: JAK3 Kinase Assay (Kinase-Glo luminescent, ATP consumption)
- assay_context: read-out: Inhibition rate (%) of JAK3 kinase activity
quantity: inhibition at 0.1 µM (%)
Write the value in % as a bare number.

Sample records with inhibition at 0.1 µM:
stdin: Value lookup for inhibition at 0.1 µM; key = N#CCC(=O)N1CCN(c2cccc(Nc3cc(NCc4cc(F)cc(F)c4)c(C(N)=O)cn3)c2)CC1 [Example 267]
stdout: 72

stdin: Value lookup for inhibition at 0.1 µM; key = NC(=O)c1cnc(Nc2ccc(N3CCC(=O)CC3)cc2)cc1NCc1cc(F)cc(F)c1 [Example 192]
stdout: 89

stdin: Value lookup for inhibition at 0.1 µM; key = CC(=O)N1CCCN(c2ccc(Nc3cc(NCc4ccccc4)c(C(N)=O)cn3)cc2)CC1 [Example 256]
stdout: 77

stdin: Value lookup for inhibition at 0.1 µM; key = N#CCC(=O)N1CCN(c2ccc(Nc3cc(NCc4c(F)cccc4F)c(C(N)=O)cn3)cc2)CC1 [Example 266]
stdout: 77

stdin: Value lookup for inhibition at 0.1 µM; key = NC(=O)c1cnc(Nc2ccc(N3CCC(O)CC3)cc2)cc1NCc1cc(F)cc(F)c1 [Example 191]
stdout: 63

stdin: Value lookup for inhibition at 0.1 µM; key = NC(=O)c1cnc(Nc2ccc(CN3CCOCC3)cc2)cc1NCc1ccccc1 [Example 318]
stdout: 83

Further cases:
stdin: Value lookup for inhibition at 0.1 µM; key = CCN(CC)CCN1CCN(c2ccc(Nc3cc(NCc4cccc(F)c4F)c(C(N)=O)cn3)cc2)CC1 [Example 237]
stdout: 78

stdin: Value lookup for inhibition at 0.1 µM; key = NC(=O)c1cnc(Nc2ccc(N3CCC(C(=O)NCCO)CC3)cc2)cc1NCc1ccccc1 [Example 176]
stdout: 86

stdin: Value lookup for inhibition at 0.1 µM; key = CN(CCN1CCOCC1)c1ccc(Nc2cc(NCc3ccccc3)c(C(N)=O)cn2)cc1 [Example 71]
stdout: 70

stdin: Value lookup for inhibition at 0.1 µM; key = NC(=O)c1cnc(Nc2ccc(N3CCC(CCO)CC3)cc2)cc1NCc1cccc([N+](=O)[O-])c1 [Example 180]
stdout: 63

---

- system_tested: Recombinant human JAK3 enzyme (JAK3 kinase region; Ala795-Ser1124) (Homo sapiens)
- measurement_protocol: JAK3 Kinase Assay (Kinase-Glo luminescent, ATP consumption)
- assay_context: read-out: Inhibition rate (%) of JAK3 kinase activity
Structures can show the parent of a compound that is named as a salt.
The threshold is inclusive: inhibition at 0.1 µM of exactly 70% counts as Satisfied; values below receive Not satisfied.

Would you please look over these solved cases?
stdin: Is reported inhibition at 0.1 µM greater than or equal to 70% here: NC(=O)c1cnc(Nc2ccc(NC(=O)[C@@H]3CCCN3)cc2)cc1NCc1ccccc1 [Example 316, hydrochloride]
stdout: Not satisfied

stdin: Is reported inhibition at 0.1 µM greater than or equal to 70% here: NC(=O)c1cnc(Nc2ccc(N3CCOCC3)c(Cl)c2)cc1NCc1cc(F)cc(F)c1
stdout: Satisfied

stdin: Is reported inhibition at 0.1 µM greater than or equal to 70% here: NC(=O)c1cnc(Nc2ccc(N3CCC(O)CC3)cc2)cc1NCc1cc(F)ccc1F
stdout: Satisfied

stdin: Is reported inhibition at 0.1 µM greater than or equal to 70% here: NC(=O)c1cnc(Nc2ccc(N3CCNCC3)cc2)cc1NCc1cc(F)ccc1F
stdout: Satisfied

Could you now consider this next molecule?
stdin: Is reported inhibition at 0.1 µM greater than or equal to 70% here: CC(C)N1CCN(c2cccc(Nc3cc(NCc4cc(F)cc(F)c4)c(C(N)=O)cn3)c2)CC1
stdout: Not satisfied

---

The following compounds are shown together with reported melting point values.

stdin: Value lookup for melting point; key = Cc1c(F)cccc1CNc1cc(Nc2ccc(N3CCOCC3)cc2)ncc1C(N)=O
stdout: 229 to 230 °C

stdin: Value lookup for melting point; key = CCCC(=O)N1CCN(c2ccc(Nc3cc(NCc4ccccc4)c(C(N)=O)cn3)cc2)CC1
stdout: 233.5 to 235.2 °C (dec.)

stdin: Value lookup for melting point; key = C[C@@H]1CN(c2ccc(Nc3cc(NCc4c(F)cccc4F)c(C(N)=O)cn3)cc2)C[C@H](C)N1
stdout: 218 to 219 °C

stdin: Value lookup for melting point; key = CS(=O)(=O)NCCN1CCN(c2ccc(Nc3cc(NCc4cc(F)cc(F)c4)c(C(N)=O)cn3)cc2)CC1
stdout: 216 to 219 °C (dec.)

stdin: Value lookup for melting point; key = CCN(CC)CC(=O)N1CCN(c2ccc(Nc3cc(NCc4cccc([N+](=O)[O-])c4)c(C(N)=O)cn3)cc2)CC1
stdout: 190 to 191 °C (dec.)

Further cases:
stdin: Value lookup for melting point; key = CC(C)S(=O)(=O)N1CCC(c2ccc(Nc3cc(NCc4cc(F)cc(F)c4)c(C(N)=O)cn3)cc2)CC1
stdout: 142 to 144 °C (dec.)

stdin: Value lookup for melting point; key = CC(=O)N1CCCN(c2ccc(Nc3cc(NCc4ccccc4)c(C(N)=O)cn3)cc2)CC1
stdout: 224 to 227 °C

stdin: Value lookup for melting point; key = NC(=O)c1cnc(Nc2ccc(N3CCOCC3)c(Cl)c2)cc1NCc1cc(F)cc(F)c1
stdout: 222 to 223 °C (dec.)

---

- system_tested: Recombinant human JAK3 enzyme (JAK3 kinase region; Ala795-Ser1124) (Homo sapiens)
- measurement_protocol: JAK3 Kinase Assay (Kinase-Glo luminescent, ATP consumption)
- assay_context: read-out: Inhibition rate (%) of JAK3 kinase activity
The threshold is inclusive: inhibition at 1 µM of exactly 40% counts as t; values below receive f.

Would you please look over these solved cases?
stdin: Is reported inhibition at 1 µM greater than or equal to 40% here: CC1CCCCC1Nc1cc(Nc2ccc(N3CCOCC3)cc2)ncc1C(N)=O (stereo not drawn)
stdout: t

stdin: Is reported inhibition at 1 µM greater than or equal to 40% here: Cc1ccc(S(=O)(=O)n2cc(-c3cc(NCc4cc(F)cc(F)c4)c(C(N)=O)cn3)c3cccnc32)cc1
stdout: f

stdin: Is reported inhibition at 1 µM greater than or equal to 40% here: NC(=O)c1cnc(Nc2ccc(N3CCOCC3)cc2)cc1NC1CCCCC1
stdout: t

stdin: Is reported inhibition at 1 µM greater than or equal to 40% here: NC(=O)c1cnc(Nc2ccncc2)cc1NCc1ccccc1
stdout: f

stdin: Is reported inhibition at 1 µM greater than or equal to 40% here: CS(=O)(=O)N1CCN(c2ccc(Nc3cc(NC4CCCCC4)c(C(N)=O)cn3)cc2)CC1
stdout: t

stdin: Is reported inhibition at 1 µM greater than or equal to 40% here: NC(=O)c1cnc(Nc2ccc(N3CCOCC3)nc2)cc1NCc1ccccc1
stdout: t

Could you now consider this next compound?
stdin: Is reported inhibition at 1 µM greater than or equal to 40% here: NC(=O)c1cnc(-c2c[nH]c3ncccc23)cc1NCc1cc(F)cc(F)c1
stdout: t
